Assign combination Emax to each entry below.
- Test system: SLVL (B-Cell Non-Hodgkin's Lymphoma)
- TEST DETAILS: combination Emax (second highest fraction inhibited in the dose matrix, 72 h); higher = more inhibition; extreme values may be limits of the assay
Answers are plain numbers.

Previously resolved entries follow.
{"columns": ["COMPOUND", "RECORDED MEASUREMENT"],
 "data": [
  ["CS(=O)(=O)CCNCc1ccc(-c2ccc3ncnc(Nc4ccc(OCc5cccc(F)c5)c(Cl)c4)c3c2)o1 [Lapatinib] + NC1(c2ccc(-c3nc4ccn5c(=O)[nH]nc5c4cc3-c3ccccc3)cc2)CCC1 [MK-2206] (first compound max 10 µM, 7x7, partner max 10 µM)", 0.81],
  ["Cc1cc2ncnn2cc1Nc1ncc2c(n1)n(C1CCOCC1)c(=O)n2C [AZD7648] + C[C@@H]1COCCN1C2=NC(=NC(=C2)C3(CC3)[S@](=N)(=O)C)C4=C5C=CNC5=NC=C4 [AZD6738] (first compound max 10 µM, 7x7, partner max 10 µM)", 0.886],
  ["Cc1cc2ncnn2cc1Nc1ncc2c(n1)n(C1CCOCC1)c(=O)n2C [AZD7648] + CCN(CCO)CCCOc1ccc2c(Nc3cc(CC(=O)Nc4cccc(F)c4)[nH]n3)ncnc2c1 [AZD2811] (first compound max 10 µM, 7x7, partner max 1 µM)", 0.687],
  ["CCN(CCO)CCCOc1ccc2c(Nc3cc(CC(=O)Nc4cccc(F)c4)[nH]n3)ncnc2c1 [AZD2811] + C=CCn1c(=O)c2cnc(Nc3ccc(N4CCN(C)CC4)cc3)nc2n1-c1cccc(C(C)(C)O)n1 [AZD1775] (first compound max 1 µM, partner max 1 µM)", 0.889],
  ["CN(C)CCCOc1ccc(-c2ccc3ncc4c(c3c2)n(C2CCOCC2)c(=O)n4C)cn1 [AZD0156] + C[C@@H]1COCCN1C2=NC(=NC(=C2)C3(CC3)[S@](=N)(=O)C)C4=C5C=CNC5=NC=C4 [AZD6738] (first compound max 1 µM, 7x7, partner max 10 µM)", 0.84]
]}

Your task in this section: give combination Emax for each listed record.
1. CN(CCO)CC[C@H](CSc1ccccc1)Nc1ccc(S(=O)(=O)NC(=O)c2ccc(N3CCC([C@@H](O)c4ccccc4-c4ccc(Cl)cc4)CC3)cc2)cc1S(=O)(=O)C(F)(F)F [AZD4320] + Nc1ccn([C@@H]2O[C@H](CO)[C@@H](O)C2(F)F)c(=O)n1 [Gemcitabine] (first compound max 1 µM, 7x7, partner max 0.3 µM)
2. Cc1cc2ncnn2cc1Nc1ncc2c(n1)n(C1CCOCC1)c(=O)n2C [AZD7648] + COc1cc([C@@H]2c3cc4c(cc3[C@@H](O[C@@H]3O[C@@H]5CO[C@@H](C)O[C@H]5[C@H](O)[C@H]3O)[C@H]3COC(=O)[C@H]23)OCO4)cc(OC)c1O [Etoposide] (first compound max 10 µM, 7x7, partner max 10 µM)
3. C=CCn1c(=O)c2cnc(Nc3ccc(N4CCN(C)CC4)cc3)nc2n1-c1cccc(C(C)(C)O)n1 [AZD1775] + Nc1ccn([C@@H]2O[C@H](CO)[C@@H](O)C2(F)F)c(=O)n1 [Gemcitabine] (first compound max 1 µM, partner max 0.3 µM)
4. CS(=O)(=O)CCNCc1ccc(-c2ccc3ncnc(Nc4ccc(OCc5cccc(F)c5)c(Cl)c4)c3c2)o1 [Lapatinib] + Cn1cnc2c(F)c(Nc3ccc(Br)cc3Cl)c(C(=O)NOCCO)cc21 [Selumetinib] (first compound max 10 µM, 7x7, partner max 10 µM)

[out]
1. 1
2. 0.924
3. 0.954
4. 0.432

* * *

Give combination Emax for every item shown.
- Test system: RCC10RGB (Kidney Carcinoma)
- TEST DETAILS: combination Emax (second highest fraction inhibited in the dose matrix, 72 h); higher = more inhibition; extreme values may be limits of the assay

The following compounds have reported results that may help.
{"columns": ["COMPOUND", "combination Emax"],
 "data": [
  ["CC1(C)CCC(CN2CCN(c3ccc(C(=O)NS(=O)(=O)c4ccc(NCC5CCOCC5)c([N+](=O)[O-])c4)c(Oc4cnc5[nH]ccc5c4)c3)CC2)=C(c2ccc(Cl)cc2)C1 [Venetoclax] + Cc1cc2ncnn2cc1Nc1ncc2c(n1)n(C1CCOCC1)c(=O)n2C [AZD7648] (first compound max 1 µM, 7x7, partner max 10 µM)", 0.205],
  ["COc1nnc2ccc(N3CCC(c4ccc(OCCN5CCN(C)C(=O)[C@H]5C)cc4)CC3)nn12 [AZD5153] + C=CCn1c(=O)c2cnc(Nc3ccc(N4CCN(C)CC4)cc3)nc2n1-c1cccc(C(C)(C)O)n1 [AZD1775] (first compound max 1 µM, partner max 1 µM)", 0.686]
]}

Now let's try a different one.
[in] Would you kindly share the measured combination Emax for COc1cc2ncnc(Nc3ccc(F)c(Cl)c3)c2cc1OCCCN1CCOCC1 [Gefitinib] + CC(C)n1c(=O)n(C)c2cnc3cc(F)c(-c4ccc(OCCCN5CCCCC5)nc4)cc3c21 [AZD1390] (first compound max 10 µM, 7x7, partner max 0.3 µM) ?
[out] 0.563

* * *

- Tested on: SW948 (Colorectal Carcinoma)
- TEST DETAILS: combination Emax (second highest fraction inhibited in the dose matrix, 72 h); higher = more inhibition; extreme values may be limits of the assay
Outcome: t for combination Emax of at least 0.5; f for anything lower.

Look over these answered cases.
{"columns": ["COMPOUND", "ANSWER LABEL"],
 "data": [
  ["CCc1c2c(nc3ccc(O)cc13)-c1cc3c(c(=O)n1C2)COC(=O)[C@]3(O)CC [SN-38] + O=C(c1cc(Cc2n[nH]c(=O)c3ccccc23)ccc1F)N1CCN(C(=O)C2CC2)CC1 [Olaparib] (first compound max 0.3 µM, 7x7, partner max 10 µM)", "t"],
  ["CC(=O)c1c(C)c2cnc(Nc3ccc(N4CCNCC4)cn3)nc2n(C2CCCC2)c1=O [Palbociclib] + Cc1c2c(nn1C)CSCc1cc(n(C)n1)CSc1cc(c3ccccc3c1)OCCCc1c(C(=O)O)n(C)c3c-2c(Cl)ccc13 [AZD5991] (first compound max 10 µM, 7x7, partner max 1 µM)", "f"],
  ["C[C@@H](c1ccc2nccn2c1)n1nnc2ncc(-c3cnn(C)c3)nc21 [Savolitinib] + Cc1c2c(nn1C)CSCc1cc(n(C)n1)CSc1cc(c3ccccc3c1)OCCCc1c(C(=O)O)n(C)c3c-2c(Cl)ccc13 [AZD5991] (first compound max 1 µM, 7x7, partner max 1 µM)", "f"],
  ["CS(=O)(=O)CCNCc1ccc(-c2ccc3ncnc(Nc4ccc(OCc5cccc(F)c5)c(Cl)c4)c3c2)o1 [Lapatinib] + NC1(c2ccc(-c3nc4ccn5c(=O)[nH]nc5c4cc3-c3ccccc3)cc2)CCC1 [MK-2206] (first compound max 10 µM, 7x7, partner max 10 µM)", "t"],
  ["Cc1cc2ncnn2cc1Nc1ncc2c(n1)n(C1CCOCC1)c(=O)n2C [AZD7648] + CN(C)CCCOc1ccc(-c2ccc3ncc4c(c3c2)n(C2CCOCC2)c(=O)n4C)cn1 [AZD0156] (first compound max 10 µM, 7x7, partner max 1 µM)", "t"],
  ["C=CCn1c(=O)c2cnc(Nc3ccc(N4CCN(C)CC4)cc3)nc2n1-c1cccc(C(C)(C)O)n1 [AZD1775] + CCc1c2c(nc3ccc(O)cc13)-c1cc3c(c(=O)n1C2)COC(=O)[C@]3(O)CC [SN-38] (first compound max 1 µM, partner max 0.3 µM)", "t"]
]}

Please examine the following record next.
[in] Could you verify whether the entry CN(CCO)CC[C@H](CSc1ccccc1)Nc1ccc(S(=O)(=O)NC(=O)c2ccc(N3CCC([C@@H](O)c4ccccc4-c4ccc(Cl)cc4)CC3)cc2)cc1S(=O)(=O)C(F)(F)F [AZD4320] + C[C@@H](Nc1cc(F)cc(F)c1)c1cc(C(=O)N(C)C)cc2c(=O)cc(N3CCOCC3)oc12 [AZD8186] (first compound max 1 µM, 7x7, partner max 3 µM) shows combination Emax of no less than 0.5?
[out] f

* * *

- System: JHH-6 (Hepatocellular Carcinoma)
- TEST DETAILS: combination Emax (second highest fraction inhibited in the dose matrix, 72 h); higher = more inhibition; extreme values may be limits of the assay
ASSAY ENDPOINT: combination Emax
Answers are plain numbers.

{"columns": ["COMPOUND", "combination Emax"],
 "data": [
  ["CC1(C)CCC(CN2CCN(c3ccc(C(=O)NS(=O)(=O)c4ccc(NCC5CCOCC5)c([N+](=O)[O-])c4)c(Oc4cnc5[nH]ccc5c4)c3)CC2)=C(c2ccc(Cl)cc2)C1 [Venetoclax] + C1CN(CCC1(C(=O)N[C@@H](CCO)C2=CC=C(C=C2)Cl)N)C3=NC=NC4=C3C=CN4 [Capivasertib] (first compound max 1 µM, 7x7, partner max 3 µM)", 0.232],
  ["CCN(CCO)CCCOc1ccc2c(Nc3cc(CC(=O)Nc4cccc(F)c4)[nH]n3)ncnc2c1 [AZD2811] + C=CCn1c(=O)c2cnc(Nc3ccc(N4CCN(C)CC4)cc3)nc2n1-c1cccc(C(C)(C)O)n1 [AZD1775] (first compound max 1 µM, partner max 1 µM)", 0.223]
]}

In the following, a different compound is considered.
[in] Could you tell me which combination Emax is on file for COc1cc2c(cc1OCCCCCOc1cc3c(cc1OC)C(=O)N1C=C(C)C[C@H]1C=N3)N=C[C@@H]1CC(C)=CN1C2=O [SG3199] + O=C(c1cc(Cc2n[nH]c(=O)c3ccccc23)ccc1F)N1CCN(C(=O)C2CC2)CC1 [Olaparib] (first compound max 0.001 µM, 7x7, partner max 10 µM) ?
[out] 0.113
